// data source = patent US5043336A

# test.method.notes: pKa (66% DMF)
# Type: physicochemical
# measurement.conditions: first value listed
assay.metric: pKa

CC[C@]1(O)C[C@@H]2CN(CCc3c([nH]c4ccccc34)[C@@](C(=O)OC)(c3cc4c(cc3OC)N(C)[C@H]3[C@@](O)(C(=O)NNC(C)CCC(=O)O)[C@H](O)[C@]5(CC)C=CCN6CC[C@]43[C@@H]65)C2)C1 (stereo partly drawn) : 5.3
CC[C@]1(O)C[C@@H]2CN(CCc3c([nH]c4ccccc34)[C@@](C(=O)OC)(c3cc4c(cc3OC)N(C)[C@H]3[C@@](O)(C(=O)NN=C(C)CCCC(=O)O)[C@H](O)[C@]5(CC)C=CCN6CC[C@]43[C@@H]65)C2)C1 : 5.1
CC[C@]1(O)C[C@@H]2CN(CCc3c([nH]c4ccccc34)[C@@](C(=O)OC)(c3cc4c(cc3OC)N(C)[C@H]3[C@@](O)(C(=O)NN=C(C)CCCCC(=O)O)[C@H](O)[C@]5(CC)C=CCN6CC[C@]43[C@@H]65)C2)C1 : 5.3
